ASSAYED SYSTEM: T1, human GREM1 (hGREM1-His; SEQ ID NO: 595) (human, UniProt O60565 25-184)
T1 construct: also called biotin-hGREM1-His; recombinant human GREM1 protein
T1 sequence: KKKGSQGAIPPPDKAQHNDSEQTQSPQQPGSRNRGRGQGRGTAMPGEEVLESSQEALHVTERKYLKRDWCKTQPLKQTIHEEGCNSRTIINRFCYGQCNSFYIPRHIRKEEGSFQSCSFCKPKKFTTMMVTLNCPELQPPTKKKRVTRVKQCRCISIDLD
PROTOCOL DETAILS: SPR, Biacore T200, 25 C, mAb captured, hGREM1-His injected;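 further: Heparin-supplemented HBS-EP+ used as running buffer, association and dissociation phases followed, Kd computed as koff divided by kon and half-life derived from koff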
Reported t1/2 values are given for each entry in this list.
Numeric answer only, unit min assumed.

Please review the following examples before continuing.
H4H2926N (antibody, human IgG4, V domains shown, H4H prefix = human IgG4 Fc) VH: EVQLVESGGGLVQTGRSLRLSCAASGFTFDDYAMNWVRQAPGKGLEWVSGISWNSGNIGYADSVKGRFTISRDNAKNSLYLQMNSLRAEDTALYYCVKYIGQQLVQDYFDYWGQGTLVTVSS VL: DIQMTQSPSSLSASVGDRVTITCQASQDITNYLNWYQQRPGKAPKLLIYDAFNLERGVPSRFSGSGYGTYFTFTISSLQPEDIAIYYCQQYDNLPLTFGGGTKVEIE	23
H4H6233P (antibody, human IgG4, V domains shown, H4H prefix = human IgG4 Fc) VH: QVQLVESGGGVVQPGRSLRLSCAASGFTFSSYGMHWVRQAPGKGLEWVAVIWYDGSNYYYAASVKGRFTISRDNSENTLYLQMNRLRAEDTAVYYCAREGTGSTEDYFDYWGQGTLVTVSS VL: EIVLTQSPATLSLSPGERATLSCRASQSVSSFLAWYQQKPGQAPRLLIYDASNRATGIPVRFSGSGSGTDFTLTISSLEPEDFAVYYCQQRSNWPPYTFGQGTKLEIK	67

Reported t1/2 for H4H6270P (antibody, human IgG4, V domains shown, H4H prefix = human IgG4 Fc) VH: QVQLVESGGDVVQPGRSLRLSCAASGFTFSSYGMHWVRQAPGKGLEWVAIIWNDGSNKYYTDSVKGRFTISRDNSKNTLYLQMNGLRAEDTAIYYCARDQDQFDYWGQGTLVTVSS VL: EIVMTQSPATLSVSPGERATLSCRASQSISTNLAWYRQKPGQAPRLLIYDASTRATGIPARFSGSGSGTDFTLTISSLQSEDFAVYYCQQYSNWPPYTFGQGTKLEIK was 66

Reported t1/2 for H4H6250P (antibody, human IgG4, V domains shown, H4H prefix = human IgG4 Fc) VH: QVQLVESGGGVVQPGRSLRLSCAASGFTFSNYGMHWVRQAPGKGLEWVAVIWYDGSNKYYADSVKGRFTISRDNSRKTLYLQMNSLRAEDTAIYYCTRDDYGDYDYPFDYWGQGTLVTVSS VL: DIQMTQSPSSLSASVGDRVTITCRASQGIRNDLGWYQQKPGKAPKRLIYAASSLQSGVPSRFSGTGSGTEFTLTISSLQPEDFATYYCLQHNSYPPFTFGPGTKVDIK was 39

Reported t1/2 for H2bM2891N (antibody, mouse IgG2, V domains shown, H2M prefix = mouse IgG2 Fc (here H2bM); also called H2M2891N) VH: EVQMVESGGGLVQPGGSLRLSCAASRFTLSNYWMGWVRQAPGKGLEWVANIKQDGSEKYYVDSVRGRFTISRDNAKNSLYLQMNSLRAEDTAVYYCARDYDFWRSFDYWGQGTLVTVPS VL: DIQMTQSPSSVSASVGDRVTITCRASQGVSSWLAWYQQTPGKAPKLLIYVVSSLQSGVPSRFSGSGSGTDFTLTINSLQPEDFATYYCQQGNSFPYTFGQGTKLEIK was 9.6

Reported t1/2 for H4H6248P (antibody, human IgG4, V domains shown, H4H prefix = human IgG4 Fc) VH: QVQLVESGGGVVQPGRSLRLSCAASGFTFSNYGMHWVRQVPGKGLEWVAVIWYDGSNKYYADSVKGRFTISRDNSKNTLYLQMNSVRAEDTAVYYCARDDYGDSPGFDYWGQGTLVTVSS VL: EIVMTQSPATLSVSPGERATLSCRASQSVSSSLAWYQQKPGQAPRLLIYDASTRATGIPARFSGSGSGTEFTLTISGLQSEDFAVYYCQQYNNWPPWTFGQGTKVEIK was 149

Reported t1/2 for H3M2929N (antibody, V domains shown, H3M prefix marks the Fc (chimeric, mouse constant domains)) VH: QVQLVESGGGVVQPGRSLRLSCAASGFIFSSYGMHWVRQAPGKGLEWVAVIWNDGSNKYSADSVKGRFTVSRDNSKNTLYLQMNSLKAEDTAVYYCARDGEWEVFDYWGQGTLVTVSS VL: DIVMTQSPVTLSASPGERATLSCRASQSVRSNLAWYQEKPGQAPRLLIYGASTRATGIPARFSGSGSGTEFTLTISSLQSEDFAVYYCQQYNDWPPWTFGQGTKVEIK was 3
